Biological target: ProLink tagged human APJ (Apelin Receptor) in CHO-K1 AGTRL1 β-Arrestin cells (human, UniProt P35414 1-380)
Sequence (P35414 whole entry): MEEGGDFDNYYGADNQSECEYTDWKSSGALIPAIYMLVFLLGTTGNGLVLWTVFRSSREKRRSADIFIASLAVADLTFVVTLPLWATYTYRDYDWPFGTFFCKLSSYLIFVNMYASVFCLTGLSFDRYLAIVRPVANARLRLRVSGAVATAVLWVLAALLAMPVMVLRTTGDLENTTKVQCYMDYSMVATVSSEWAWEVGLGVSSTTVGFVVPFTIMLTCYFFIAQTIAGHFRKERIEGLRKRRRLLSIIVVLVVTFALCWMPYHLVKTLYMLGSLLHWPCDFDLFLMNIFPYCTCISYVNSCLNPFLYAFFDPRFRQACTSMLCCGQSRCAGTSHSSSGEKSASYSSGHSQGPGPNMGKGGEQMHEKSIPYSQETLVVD
Assay: cell-based or functional assay
Non-standard residues stand in square brackets, D forms with d. No end group written: not given here.
β-Arrestin recruitment, Percent of Apelin-13 Control Activity (10 µM peptide): recorded values
observed-property: β-Arrestin recruitment, Percent of Apelin-13 Control Activity (10 µM peptide)

binder: RRMVYQCLCG[dA] (cysteine pairing not given here) [SEQ ID NO 22]
endpoint-result: 0 % of Apelin-13 control
//
binder: RRMVFQCLEG[dA] [SEQ ID NO 23]
endpoint-result: 0 % of Apelin-13 control
//
binder: RRMMGMVFQCLSG[dA] [SEQ ID NO 16]
endpoint-result: 0 % of Apelin-13 control
//
binder: RRMMGMVEQCLCG[dA] (cysteine pairing not given here) [SEQ ID NO 12]
endpoint-result: -1 % of Apelin-13 control
//
binder: RRMMGMVFQSLEG[dA] [SEQ ID NO 39]
endpoint-result: 0 % of Apelin-13 control
//
binder: RRMMGMVAQCLCG[dA] (cysteine pairing not given here) [SEQ ID NO 11]
endpoint-result: 0 % of Apelin-13 control
//
binder: RRXXGXVFQCLCGA ((Nle) norleucine at positions 3, 4 and 6; (dA) D-alanine at position 14) [SEQ ID NO 18]
endpoint-result: 1 % of Apelin-13 control

Recorded values, source patent US20220324909A1.
